src = patent US20090298167A1

Give A450 at 13 nM Ab in cell ELISA for every item shown.
biological target: T1, cynomolgus monkey IL-21R expressed on CHO cells (cynomolgus monkey); assay: cell ELISA on transfected CHO cells, 13 nM IgG
T1 construct: whole, on cells
One number for each entry, in A450.

Use these answered entries as a reference point.
binder	readout name	reported measurement
AbT (antibody, human IgG1, V domains shown, Human IgG1 triple-mutant (L234A, L235A, G237A); Framework limits derived; also called VHP/VL9; VHPTM/VL9) VH: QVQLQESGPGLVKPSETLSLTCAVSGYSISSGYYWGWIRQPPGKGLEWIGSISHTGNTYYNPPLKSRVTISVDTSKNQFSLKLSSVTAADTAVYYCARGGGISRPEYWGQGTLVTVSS VL: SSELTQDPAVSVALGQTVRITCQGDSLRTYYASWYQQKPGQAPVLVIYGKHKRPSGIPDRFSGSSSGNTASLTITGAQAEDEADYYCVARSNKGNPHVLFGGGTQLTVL	A450 at 13 nM Ab in cell ELISA	1.22
AbG (antibody, human IgG1, V domains shown, Full-length human IgG1 / human lambda, transient, conditioned medium; Framework limits derived; also called VHP/VL18) VH: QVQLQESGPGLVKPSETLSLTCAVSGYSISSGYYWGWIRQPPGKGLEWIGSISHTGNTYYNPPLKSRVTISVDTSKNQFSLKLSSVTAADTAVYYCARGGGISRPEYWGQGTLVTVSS VL: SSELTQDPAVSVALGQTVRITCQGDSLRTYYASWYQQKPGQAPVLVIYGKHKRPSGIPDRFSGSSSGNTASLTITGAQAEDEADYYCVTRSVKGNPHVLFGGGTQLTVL	A450 at 13 nM Ab in cell ELISA	1.3
AbQ (antibody, human IgG1, V domains shown, Purified form: human IgG1 double-mutant (L234A, G237A); Framework limits derived; also called VH3/VL2; VH3DM/VL2) VH: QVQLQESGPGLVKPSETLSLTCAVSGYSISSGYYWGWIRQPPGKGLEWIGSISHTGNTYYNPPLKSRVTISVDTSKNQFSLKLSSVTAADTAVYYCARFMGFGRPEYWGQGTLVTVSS VL: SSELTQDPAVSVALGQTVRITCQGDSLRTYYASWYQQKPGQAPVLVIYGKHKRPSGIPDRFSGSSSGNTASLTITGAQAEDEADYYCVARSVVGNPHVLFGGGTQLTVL	A450 at 13 nM Ab in cell ELISA	1.31
AbJ (antibody, human IgG1, V domains shown, Full-length human IgG1 / human lambda, transient, conditioned medium; Framework limits derived; also called VH3/VLP) VH: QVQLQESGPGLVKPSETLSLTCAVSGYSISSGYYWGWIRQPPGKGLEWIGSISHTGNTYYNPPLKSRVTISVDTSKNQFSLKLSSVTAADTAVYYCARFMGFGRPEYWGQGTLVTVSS VL: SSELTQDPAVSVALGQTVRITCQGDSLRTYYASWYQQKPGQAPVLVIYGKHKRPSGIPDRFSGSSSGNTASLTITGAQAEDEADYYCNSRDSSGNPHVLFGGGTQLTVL	A450 at 13 nM Ab in cell ELISA	1.27

Consider now this further binder.
A450 at 13 nM Ab in cell ELISA reading for AbO (antibody, human IgG1, V domains shown, Human IgG1 triple-mutant (L234A, L235A, G237A); Framework limits derived; also called VHP/VL16; VHPTM/VL16) VH: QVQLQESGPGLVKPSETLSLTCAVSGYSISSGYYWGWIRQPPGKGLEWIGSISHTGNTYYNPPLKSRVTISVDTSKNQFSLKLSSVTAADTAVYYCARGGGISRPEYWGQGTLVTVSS VL: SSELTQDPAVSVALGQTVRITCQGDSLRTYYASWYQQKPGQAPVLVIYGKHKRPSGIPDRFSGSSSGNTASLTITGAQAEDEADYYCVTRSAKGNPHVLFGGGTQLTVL : 1.36
